- targetEntity: prolyl endopeptidase (Elizabethkingia meningoseptica, UniProt P27028)
- Sequence (P27028 21-705): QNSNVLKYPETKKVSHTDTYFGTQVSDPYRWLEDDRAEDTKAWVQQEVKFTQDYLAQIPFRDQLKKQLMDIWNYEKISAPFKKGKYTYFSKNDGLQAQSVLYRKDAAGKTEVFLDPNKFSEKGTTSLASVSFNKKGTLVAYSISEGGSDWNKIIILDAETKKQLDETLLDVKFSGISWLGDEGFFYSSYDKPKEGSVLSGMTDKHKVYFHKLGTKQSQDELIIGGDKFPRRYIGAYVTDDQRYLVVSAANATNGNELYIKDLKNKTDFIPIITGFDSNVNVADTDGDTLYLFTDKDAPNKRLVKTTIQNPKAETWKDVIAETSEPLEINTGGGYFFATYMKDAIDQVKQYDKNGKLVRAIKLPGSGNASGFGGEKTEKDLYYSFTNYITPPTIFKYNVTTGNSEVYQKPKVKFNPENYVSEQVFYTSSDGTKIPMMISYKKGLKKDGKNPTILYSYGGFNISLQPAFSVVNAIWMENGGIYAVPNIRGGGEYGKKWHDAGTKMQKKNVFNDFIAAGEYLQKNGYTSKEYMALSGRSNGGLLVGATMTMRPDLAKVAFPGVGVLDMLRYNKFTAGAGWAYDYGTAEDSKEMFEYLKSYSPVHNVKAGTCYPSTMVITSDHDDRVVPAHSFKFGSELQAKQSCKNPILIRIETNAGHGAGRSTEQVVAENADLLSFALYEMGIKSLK
- test: Anti-prolyl endopeptidase activity (inhibition of digestion of Z-glycyl-prolyl-β-naphthylamide)
- Format: biochemical
- setupConditions: amount for 50% inhibition; 0.0025M Z-glycyl-prolyl-β-naphthylamide (0.25 ml), pH 7.0, 35° C., 10 minutes, absorbance at 410 nm
measuredParameter: IC50 (μg/test tube)

Recorded IC50, per entry:
1) O=C(O[C@H]1C[C@@H](C(=O)N2CCCC2)N(C(=O)CCCc2ccccc2)C1)c1ccccc1 | 0.06
2) O=C([C@@H]1C[C@H](Oc2ccc(Cl)cc2)CN1C(=O)CCCc1ccccc1)N1CCCC1 | 0.04
3) Cc1ccc(O[C@H]2C[C@@H](C(=O)N3CCCC3)N(C(=O)CCCc3ccccc3)C2)cc1 | 0.03
4) COc1ccc(O[C@H]2C[C@@H](C(=O)N3CCCC3)N(C(=O)CCCc3ccccc3)C2)cc1 | 0.01
5) O=C(O[C@@H]1C[C@@H](C(=O)N2CCCC2)N(C(=O)CCCc2ccccc2)C1)c1ccc(Cl)cc1 | 0.20

P. COc1ccc(C(=O)O[C@H]2C[C@@H](C(=O)N3CCCC3)N(C(=O)CCCc3ccccc3)C2)cc1
Q. O=C([C@@H]1C[C@@H](O)CN1C(=O)CCCc1ccccc1)N1CCCC1
In: Between P and Q , whose measured IC50 reads higher? Answer by stating the label of the chosen item.
Out: Q

A. COc1ccc(O[C@H]2C[C@@H](C(=O)N3CCCC3)N(C(=O)OCc3ccccc3)C2)cc1
B. CC(=O)O[C@H]1C[C@@H](C(=O)N2CCCC2)N(C(=O)CCCc2ccccc2)C1
In: Between A and B , whose measured IC50 reads higher? Answer by stating the label of the chosen item.
Out: B

I. COc1cccc(O[C@H]2C[C@@H](C(=O)N3CCCC3)N(C(=O)CCCc3ccccc3)C2)c1
II. O=C(O[C@H]1C[C@@H](C(=O)N2CCCC2)N(C(=O)CCCc2ccccc2)C1)c1ccc(Cl)cc1
In: Between I and II , whose measured IC50 reads higher? Answer by stating the label of the chosen item.
Out: II
